- EXPERIMENT NOTES: Pharmacokinetic evaluation of liquid bevirimat dosage forms, oral gavage, male Cynomolgus monkeys
- CONDITION PARAMETERS: male, cynomolgus monkey, in vivo, po, 50 mg, AUCall, 12.5 mg FAE/mL in 15% EtOH:0.5% TPGS:15% PG:5% Glycerin, 0.2% Povidone K90, 50 mg FAE/monkey oral gavage; monkeys 117,118,119,AVG
RECORDED ENDPOINT: AUC (µg·h/mL)
Entry rule: numbers only, all in µg·h/mL.

**Query** Return reported AUC; argument: C=C(C)[C@@H]1CC[C@]2(C(=O)O)CC[C@]3(C)[C@H](CC[C@@H]4[C@@]5(C)CC[C@H](OC(=O)CC(C)(C)C(=O)O)C(C)(C)[C@@H]5CC[C@]43C)[C@@H]12
**Result** 488
